Molecular target: Proteinase-activated receptor 1 (Homo sapiens)
Sequence (P25116 whole entry): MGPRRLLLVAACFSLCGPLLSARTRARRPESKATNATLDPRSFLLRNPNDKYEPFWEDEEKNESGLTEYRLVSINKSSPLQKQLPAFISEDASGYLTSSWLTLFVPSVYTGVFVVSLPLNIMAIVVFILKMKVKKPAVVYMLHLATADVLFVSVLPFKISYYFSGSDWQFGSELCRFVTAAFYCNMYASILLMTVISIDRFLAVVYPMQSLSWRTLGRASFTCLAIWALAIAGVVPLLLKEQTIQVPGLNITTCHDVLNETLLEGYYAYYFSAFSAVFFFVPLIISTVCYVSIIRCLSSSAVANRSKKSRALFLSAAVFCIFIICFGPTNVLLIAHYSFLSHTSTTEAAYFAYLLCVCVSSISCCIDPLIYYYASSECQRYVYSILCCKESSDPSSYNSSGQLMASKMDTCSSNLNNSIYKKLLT
Experiment: Inhibitory concentration against potent thrombin receptor-1 (PAR-1) on human platelets
quantity.name: pIC50
Please express pIC50 as -log10 of the molar concentration.

# annotated cases, reported pIC50 shown
CCCCCCCn1c(=N)n(CC(=O)c2cc(C(C)(C)C)c(O)c(C(C)(C)C)c2)c2ccccc21 | 6.02
CC(C)(C)c1cc(C(=O)Cn2c(N)nc3ccccc32)cc(C(C)(C)C)c1O | 5.82
CC(C)(C)c1cc(C(=O)Cn2c(=N)n(Cc3ccc(Cl)c(Cl)c3)c3ccccc32)cc(C(C)(C)C)c1O | 5.88
CCCCn1c(=N)n(CC(=O)c2cc(C(C)(C)C)c(O)c(C(C)(C)C)c2)c2ccccc21 | 6.44
Cc1ccc(Cn2c(=N)n(CC(=O)c3cc(C(C)(C)C)c(O)c(C(C)(C)C)c3)c3ccccc32)cc1 | 7.48
Cn1c(=N)n(CC(=O)c2cc(C(C)(C)C)c(O)c(C(C)(C)C)c2)c2ccccc21 | 6.05
CC(C)(C)c1cc(C(=O)Cn2c(=N)n(CCN3CCCCC3)c3ccccc32)cc(C(C)(C)C)c1O | 5.54
CC(C)(C)c1ccc(Cn2c(=N)n(CC(=O)c3cc(C(C)(C)C)c(O)c(C(C)(C)C)c3)c3ccccc32)cc1 | 6.13

Given the compound CC(C)(C)c1cc(C(=O)Cn2c(=N)n(CCN3CCOCC3)c3ccccc32)cc(C(C)(C)C)c1O , what is its reported pIC50?
7.01

Now consider CC(C)(C)c1cc(C(=O)Cn2c(=N)n(Cc3ccccc3)c3ccccc32)cc(C(C)(C)C)c1O and answer again.
7.19

Hello, the source for this data is ChEMBL document CHEMBL1133830, in case you need it.
